These measurements were taken from ChEMBL document CHEMBL6182906.

# Target Under Test: Mushroom tyrosinase (Agaricus bisporus) (UniProt O42713+Q00024+C7FF04+C7FF05)
# Protocol Description: Inhibition of mushroom tyrosinase using L-DOPA as substrate up to 1 mM preincubated for 10 mins followed by substrate addition measured after 20 mins by absorbance based assay
# Format: protein assay
# Recorded Conditions: time 30.0 min
The source made the active and inactive calls. No cut-off for these calls is given here.
Outcomes: YES (active), NO (inactive)

Smiles Code	Class Label
COC(=O)[C@H](Cc1ccc(O)cc1)NC(=O)/C=C/c1ccccc1F	NO
CCC/C=C\c1ccccc1/C=C/C(=O)N[C@H](Cc1ccc(O)cc1)C(=O)OC	NO
COC(=O)[C@H](Cc1ccc(O)cc1)NC(=O)/C=C/c1ccccc1Br	NO
COC(=O)[C@H](Cc1ccc(O)cc1)NC(=O)/C=C/c1ccccc1C	NO
COC(=O)[C@H](Cc1ccc(O)cc1)NC(=O)/C=C/c1ccccc1	NO
CCC/C=C\c1ccccc1/C=C/C(=O)N[C@@H](Cc1ccc(O)cc1)C(=O)OC	NO
COC(=O)[C@H](Cc1ccc(O)cc1)NC(=O)/C=C/c1ccccc1OC	YES
CCC/C=C\c1ccccc1/C=C/C(=O)N[C@H](Cc1ccc(O)cc1)C(=O)O	NO
COC(=O)[C@H](Cc1ccc(O)cc1)NC(=O)/C=C/c1ccccc1C(F)(F)F	NO
CCC/C=C\c1ccccc1/C=C/C(=O)N[C@@H](Cc1ccc(O)cc1)C(=O)O	NO
